Parameter: OD 450. Scope: all listed entries.
target: Mouse IgG2a protein (AcroBiosystems Cat# IGA-M5207) (mouse) [IgG part: P01863]; assay: indirect ELISA, hybridoma supernatant, coated antigen B at 1 µg/ml
Sequence (P01863 98-330): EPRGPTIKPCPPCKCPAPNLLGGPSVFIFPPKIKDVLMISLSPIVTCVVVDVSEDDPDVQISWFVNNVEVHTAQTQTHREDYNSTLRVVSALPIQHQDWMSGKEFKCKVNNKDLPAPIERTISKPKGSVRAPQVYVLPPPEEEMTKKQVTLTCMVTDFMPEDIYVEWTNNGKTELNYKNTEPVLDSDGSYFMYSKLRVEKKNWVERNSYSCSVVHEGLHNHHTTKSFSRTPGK
Record the value in OD 450, omitting the unit from your answer.

{"binder": "16D7C8 (antibody, IgG3, V domains shown) VH: QVQLQQSGPELVKPGASVRISCKASGYTFTSFYIHWVKQRPGQGLEWIGWISPINININYNEKFKGKATLTADKSSSTVYMQLSSLTSEDSAVYFCEGTSENFDVWGAGTTVTVSS VL: DVLMTQIPLSLPVSLGDQASISCRSTQNIVHSNGNTYLEWYLQKPGQSPKLLIYKVSNRFSGVPDRFRGSGSGTEFTLKITRVEADDLGVYYCFQGSHVPFTFGAGTKLELK", "measured_endpoint": "OD 450", "measured": 0.154}
{"binder": "19H7E4 (antibody, IgG1, V domains shown) VH: QVTLKESGPGILQPSQTLSLTCSFSGFSLSTSNVGVGWIRQPSGKGLEWLLHILWNDGKYYNPALKSRLTISKDTSTNQVFLKIADVDTADSATYYCARLRRDYGMDYWGQGTSVTVSS VL: DIVMSQSPSSLAVSVGEKVTMSCKSSQSLLYSYNQKNYLAWYQQKPGQSPKLLIYWASTRESGVPDRFTGSGSGTDFTLTISSVKAEDLAVYYCQQYYTYPYAFGGGTKLEIK", "measured_endpoint": "OD 450", "measured": 0.134}
{"binder": "3H11D12E7 (antibody, V domains shown) VH: QIQLVQSGPELKKPGETVKISCKASGYTFTDYSMHWVKQAPGKGLKWMGWINTETGEPTYADDFKGRFAFSLETSASTAYLQINNLKNDDTATYFCARSFYRYDWYFDVWGAGTTVTVSS VL: QIVLTQSPAIMSASPGEKVTITCSASSSVSFMHWFQQKPGTSPKLWIYSTSNLASGVPARFSGSGSGTSYSLTISRMEAEDAATYYCQQRTSFPPTFGGGTNLEIK", "measured_endpoint": "OD 450", "measured": 0.115}
{"binder": "18F8A8 (antibody, IgG1, V domains shown) VH: QVTLKESGPGILQPSQTLSLTCSFSGFSLSTSNMGVAWIRQPLGKGLEWLLYILWNDTKYYNPALKSRLSISKDTYNNQVFLKIVNVDTADTATYYCARIRRDYALDYWGQGTSVTVSS VL: DIVMSQSPSSLAVSVGEKVTMNCKSSQSLLYSNNQKNYLAWYQQKPGQSPKLLIYWASTRESGVPDRFTGSGSGTDFTLTISSVKAEDLAVYYCQQYYIYPLAFGGGTKLEIK", "measured_endpoint": "OD 450", "measured": 0.146}
{"binder": "11E12E8 (antibody, IgG1, V domains shown) VH: DVQLVESGGGLVQPGGSRKLSCAASGFTFSRFGMNWVRQAPEKGLEWVAYISSGSGDIYYADTVKGRFTISRDNPKNTLFLQMTSLRSEDTAMYYCAVTWFAYWGQGTLVTVSA VL: QAVVTQEPALTTSPGETVTLTCRSSTGAVTTSNYANWVQEKPDHLFTGLIGGTNNRAPGVPARFSGSLIGDKAALTITGAQTEDEAIYFCVLWYSNHFIFGSGTKVTVL", "measured_endpoint": "OD 450", "measured": 0.107}

Attention now turns to another entry.
Input line: Provide OD 450 value for the following binder: 4E6G9 (antibody, V domains shown) VH: QIQLVQSGPELKKAGETVKISCKASGYTFAAYSMHWVKQAPGKGLKWMGWINTETGEPTYADDFKGRFAFSLETSASTAYLQINNLKNEDTATYFCTRDDYDGGRFSYWYFAVWGAGTTVTVSS VL: DIQMTQSPSSLSASLGGKVTITCKASQDINKYIAWYQHRPGKGPRLLIRYTSTLQPGIPSRFSGSGSGRDYSFSINNLEPEDIATYYCLQYDNLLTFGGGTKLEIK
Output line: 0.121
